The reported measurements were obtained from ChEMBL document CHEMBL1128607.

Ki values for the compounds below.
biological target: Human immunodeficiency virus type 1 protease (Human immunodeficiency virus 1, UniProt Q72874)

{"Compound": "CCC(c1cccc(C(=O)N[C@H](C(=O)NCc2ccccn2)C(C)CC)c1)c1c(O)oc2ccccc2c1=O (some centres undefined)", "Ki / nM": 400}
{"Compound": "CCC(c1cccc(NC(=O)[C@@H]2CCCN2C(=O)OC(C)(C)C)c1)c1c(O)c2ccccc2oc1=O (some centres undefined)", "Ki / nM": 3600}
{"Compound": "CCC(c1cccc(NC(=O)CCNC(=O)OC(C)(C)C)c1)c1c(O)oc2cc(OC)ccc2c1=O (centres undefined)", "Ki / nM": 170}
{"Compound": "COc1ccc2c(O)c(C(c3cccc(NC(=O)CCNC(=O)OC(C)(C)C)c3)C3CC3)c(=O)oc2c1 (centres undefined)", "Ki / nM": 28}
{"Compound": "CCC(Cc1ccccc1)c1cc(O)c(C(c2cccc(NC(=O)Cc3ccncc3)c2)C2CC2)c(=O)o1 (centres undefined)", "Ki / nM": 44}
{"Compound": "CCC(c1ccccc1)c1c(O)c2ccc(OC)cc2oc1=O (centres undefined)", "Ki / nM": 560}
{"Compound": "CCC(c1cccc(NC(=O)CCNC(=O)OC(C)(C)C)c1)c1c(O)c2ccccc2oc1=O (centres undefined)", "Ki / nM": 280}
{"Compound": "CCC(Cc1ccccc1)c1cc(O)c(C(c2cccc(NC(=O)[C@H](C)NC(=O)OC(C)(C)C)c2)C2CC2)c(=O)o1 (some centres undefined)", "Ki / nM": 15}
{"Compound": "CCC(Cc1ccccc1)c1cc(O)c(C(c2cccc(NC(=O)[C@H](Cc3c[nH]cn3)NC(=O)OC(C)(C)C)c2)C2CC2)c(=O)o1 (some centres undefined)", "Ki / nM": 4}
